Where do the numbers come from? From patent US11970494B2.

- TARGET_DESC: JAK2 (JH1 domain-catalytic, Y1007F,Y1008F) kinase (Homo sapiens, UniProt O60674, Y1007F/Y1008F)
- Construct: made in house; host or cells: transiently transfected HEK293 cells
- Sequence (O60674 849-1124 Y1007F/Y1008F limits assumed): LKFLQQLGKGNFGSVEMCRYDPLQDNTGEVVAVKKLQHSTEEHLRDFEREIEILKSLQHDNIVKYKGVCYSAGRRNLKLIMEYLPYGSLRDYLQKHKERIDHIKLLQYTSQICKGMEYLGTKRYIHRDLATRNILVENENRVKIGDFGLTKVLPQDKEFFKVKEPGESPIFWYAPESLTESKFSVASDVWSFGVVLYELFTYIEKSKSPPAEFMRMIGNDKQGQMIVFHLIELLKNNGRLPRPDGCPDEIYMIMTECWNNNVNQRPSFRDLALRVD
- TEST_PROTOCOL: JAK2 Binding Assay (JAK2 JH1 Domain Binding Assay)
- EXPERIMENTAL_CONTEXT: JAK2 JH1 domain binding, qPCR detection; read-out: JAK2 Kd
Recorded Kd, one value per entry.

{"columns": ["COMPOUND", "Kd"],
 "data": [
  ["COCCNCC(=O)Nc1cc(Oc2cnc3nc(Nc4cc(C(F)(F)F)cn(C)c4=O)n(C)c3c2Cl)ccn1", "< 10 nM"]
]}

Provide measured Kd value, entry: `Cn1c(Nc2cc3n(n2)CCC32CCC2)nc2ncc(Oc3ccnc(NC(=O)C4CC4)c3)c(C#N)c21`
< 10 nM

Provide measured Kd value, entry: CC(=O)Nc1cc(Oc2cnc3nc(Nc4cc([C@H]5CCOC5)nc(C(F)(F)F)c4)n(C)c3c2Cl)ccn1 (single isomer, unassigned)
< 10 nM

Provide measured Kd value, entry: `CN(C)C(=O)Nc1cc(Oc2cnc3nc(Nc4cc5n(n4)CCOC5(C)C)n(C)c3c2C#N)ccn1`
< 10 nM
